Molecular target: BTK (Homo sapiens (Human))
Sequence (Q06187 whole entry, species assumed): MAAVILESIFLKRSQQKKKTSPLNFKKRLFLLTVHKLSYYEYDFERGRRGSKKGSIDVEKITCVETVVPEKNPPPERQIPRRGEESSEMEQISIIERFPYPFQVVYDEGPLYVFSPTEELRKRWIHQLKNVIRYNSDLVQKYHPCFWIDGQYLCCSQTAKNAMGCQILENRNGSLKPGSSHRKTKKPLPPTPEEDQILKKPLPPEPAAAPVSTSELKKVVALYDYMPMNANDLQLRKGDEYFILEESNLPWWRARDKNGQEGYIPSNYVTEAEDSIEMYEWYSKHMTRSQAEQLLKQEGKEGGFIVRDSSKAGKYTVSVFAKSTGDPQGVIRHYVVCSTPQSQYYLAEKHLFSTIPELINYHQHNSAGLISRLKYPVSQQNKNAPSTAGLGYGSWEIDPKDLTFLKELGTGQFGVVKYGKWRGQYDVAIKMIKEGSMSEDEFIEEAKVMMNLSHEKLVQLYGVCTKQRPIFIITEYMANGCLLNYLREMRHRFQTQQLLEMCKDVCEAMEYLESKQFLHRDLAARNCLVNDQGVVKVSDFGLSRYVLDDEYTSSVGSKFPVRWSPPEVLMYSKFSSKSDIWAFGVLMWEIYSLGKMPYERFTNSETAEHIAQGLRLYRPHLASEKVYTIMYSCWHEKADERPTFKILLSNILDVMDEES
Assay: Btk kinase assay (HTRF)
Type: biochemical
Settings: [ATP]=80 μM, BTK=3.4 nM; read-out: BTK Inhibition
pIC50: −log10 of the molar value.
Known pIC50 of a selection of compounds
readout-label: pIC50

# mol-smiles, readout-label, meas-value
data = [
    ("C=CC(=O)N1CCC[C@@H](n2nc(-c3ccc(N4CCN(S(C)(=O)=O)CC4)cc3)c3cnccc32)C1", "pIC50", "6.00 to 7.00"),
    ("C=CC(=O)N1CCC[C@@H](n2nc(-c3ccc(Oc4cccc(OC(C)C)c4)cc3)c3cnccc32)C1", "pIC50", "7.00 to 8.00"),
    ("CC#CC(=O)N1CCC[C@@H](n2nc(-c3ccc(Oc4cccc(OC)c4Cl)cc3)c3cnccc32)C1", "pIC50", "6.00 to 7.00"),
    ("C=CC(=O)N1CC[C@@H](n2nc(-c3ccc(Oc4ccccc4)cc3)c3c(N)cccc32)C1", "pIC50", "7.00 to 8.00"),
    ("C=CC(=O)N1CC[C@@H](n2nc(-c3ccc(Oc4cccc(OC)c4Cl)cc3)c3cncc(OC)c32)C1", "pIC50", "> 8.00"),
    ("C=CC(=O)N1CC[C@@H](n2nc(-c3ccc(Oc4cccc(F)c4OC)cc3)c3cnccc32)C1", "pIC50", "7.00 to 8.00"),
    ("C=CC(=O)N1CCC[C@@H](n2nc(-c3ccc(Oc4cccc(OC)c4OCCC)cc3)c3cncc(OCCC)c32)C1", "pIC50", "7.00 to 8.00"),
]

###

Target: UniProt Q06187
Assay: Btk kinase assay (HTRF)
Format: biochemical
Conditions: [ATP]=80 μM, BTK=3.4 nM; read-out: BTK Inhibition
Method: Btk Kinase Assay and Other Kinases Assay Btk kinase activity was determined using a homogenous time resolved fluorescence (HTRF) methodology. Measurements were performed in a reaction volume of 15 μL using 384-well assay plates. […] For each compound, enzyme activity as measured at various concentrations of compound, Negative control reactions were performed in the absence of inhibitor in two replicates and eight no enzyme controls were used to determine baseline fluorescence levels.

# molecule, IC50
rows = [
    ("C=CC(=O)N1CC[C@@H](n2nc(-c3ccc(Oc4cccc(OC)c4)cc3)c3cnccc32)C1", "< 10 nM"),
    ("C=CC(=O)N1CCC[C@@H](n2nc(-c3ccc(Oc4ccccc4)cc3)c3cnccc32)C1", "< 10 nM"),
    ("COc1cccc(Oc2ccc(-c3nn([C@@H]4CCCN(C(=O)C5CC6(C5)CN(S(=O)(=O)c5ccc(C)cc5)C6)C4)c4c(OC)cncc34)cc2)c1F", "100 to 1000 nM"),
    ("C=CC(=O)N1CC[C@@H](n2nc(-c3ccc(Oc4cccc5c4CCC5)cc3)c3cnccc32)C1", "10 to 100 nM"),
    ("C=CC(=O)N1CC[C@@H](n2nc(-c3ccc(Oc4cccc(Cl)c4C)cc3)c3cnccc32)C1", "10 to 100 nM"),
    ("C=CC(=O)N1CC[C@@H](n2nc(-c3ccc(Oc4cccc(OC)c4F)cc3)c3cncc(C(F)F)c32)C1", "< 10 nM"),
    ("C=CC(=O)N1CC[C@@H](n2nc3ccncc3c2-c2ccc(-c3cccc(C)c3)cc2)C1", "100 to 1000 nM"),
    ("C=CC(=O)N1CCC[C@@H](n2nc(-c3ccc(Oc4cccc(F)c4)cc3)c3cnccc32)C1", "< 10 nM"),
    ("C=CC(=O)N1CCC[C@@H](n2nc(-c3ccc(Oc4cccc(OC)c4)cc3)c3cnccc32)C1", "10 to 100 nM"),
    ("COc1cccc(Oc2ccc(-c3nn(CC4CCCN4C(=O)/C(C#N)=C/C(C)(C)C)c4c(OC)cncc34)cc2)c1F (stereo not drawn)", "10 to 100 nM"),
    ("C=CC(=O)N1CC[C@@H](n2nc(-c3ccc(Oc4ccccc4)cc3)c3cnccc32)C1", "< 10 nM"),
    ("C=CC(=O)N1CCC[C@@H](n2nc(-c3ccc(Oc4cccc(OC)c4F)cc3)c3cncc(OCCO)c32)C1", "< 10 nM"),
    ("O=C(O)C1CCC(n2nc(-c3ccc(-c4ccccc4)cc3)c3cnccc32)CC1 (stereo not drawn)", "> 10000 nM"),
    ("C=CC(=O)N1CCC[C@@H](n2nc(-c3ccc(Oc4cccc(OC)c4F)cc3)c3cncc(OCC)c32)C1", "< 10 nM"),
    ("COc1cccc(Oc2ccc(-c3nn([C@@H]4CCCN(C(=O)/C(C#N)=C/C(C)(C)C)C4)c4c(OC)cncc34)cc2)c1F", "10 to 100 nM"),
]

###

Known IC50 of a selection of molecules
Biological target: BTK (Homo sapiens (Human))
Experiment: Btk kinase assay (HTRF)
Assay type: biochemical
Details: [ATP]=80 μM, BTK=3.4 nM; read-out: BTK Inhibition
readout-label: IC50

# mol-smiles, meas-value
rows = [
    ("C=CC(=O)N1CCC[C@@H](n2nc(-c3ccc(OC4CCCCC4)cc3)c3cnccc32)C1", "10 to 100 nM"),
    ("C=CC(=O)N1CCC[C@@H](n2nc(Nc3ccc(N4CCN(C)CC4)cc3)c3cnccc32)C1", "1000 to 10000 nM"),
    ("C=CC(=O)N1CCC[C@@H](n2nc(-c3ccc(OCc4ccccc4F)cc3)c3cnccc32)C1", "10 to 100 nM"),
    ("C=CC(=O)N1CC[C@@H](n2nc(-c3ccc(Oc4cccc(OC)c4F)cc3)c3cncc(OC)c32)C1", "< 10 nM"),
    ("C=CC(=O)N1CC[C@@H](n2nc(-c3ccc(C(=O)NCc4cccc(OC)c4)cc3)c3cnccc32)C1", "100 to 1000 nM"),
    ("C=CC(=O)N1CC[C@@H](n2nc(-c3ccc(Oc4cccc(OC)c4F)cc3)c3cncc(OCC)c32)C1", "< 10 nM"),
    ("C=CC(=O)N1CC[C@@H](n2nc(-c3ccc(Oc4ccccc4)c(Cl)c3)c3cnccc32)C1", "< 10 nM"),
]

###

Biological target: UniProt:Q06187
Test: Btk kinase assay (HTRF)
Format: biochemical
Conditions: [ATP]=80 μM, BTK=3.4 nM; read-out: BTK Inhibition
pIC50: −log10 of the molar value.

# molecule, pIC50
records = [
    ("COc1cccc(Oc2ccc(-c3nn([C@@H]4CCCN(C(=O)C(N)=O)C4)c4c(OC)cncc34)cc2)c1F", "7.00 to 8.00"),
    ("C=CC(=O)N1CC[C@@H](n2nc3ccncc3c2-c2ccc(Oc3cccc(F)c3Cl)cc2)C1", "7.00 to 8.00"),
    ("C=CC(=O)N1CCC[C@@H](n2nc(-c3ccc(Oc4cccc(OC)c4F)cc3)c3cncc(C(F)F)c32)C1", "7.00 to 8.00"),
    ("C=CC(=O)Nc1cccc(-n2nc(-c3ccc(Oc4ccccc4)cc3)c3cnccc32)c1", "7.00 to 8.00"),
    ("C=CC(=O)N1CC[C@@H](n2nc(-c3ccc(Oc4cccc(F)c4Cl)cc3)c3cnccc32)C1", "> 8.00"),
    ("C=CC(=O)N1CC2(CC(n3nc(-c4ccc(Oc5cccc(OC)c5Cl)cc4)c4cnccc43)C2)C1", "6.00 to 7.00"),
    ("C=CC(=O)N1CC[C@@H](n2nc(-c3ccc(Sc4cccc(F)c4)cc3)c3cnccc32)C1", "> 8.00"),
    ("C=CC(=O)N1CC[C@@H](n2nc(-c3ccc(Oc4cccc(OC)c4F)cc3)c3cnccc32)C1", "> 8.00"),
    ("C=CC(=O)N1CC(n2nc(-c3ccc(Oc4ccccc4)cc3)c3cnccc32)C1", "7.00 to 8.00"),
    ("C=CC(=O)N1CCC[C@@H](n2nc(-c3ccc(Oc4cccc(F)c4OC)cc3)c3cnccc32)C1", "7.00 to 8.00"),
    ("C=CC(=O)N1CCC[C@@H](n2nc3ccncc3c2-c2ccc(Oc3cccc(F)c3Cl)cc2)C1", "7.00 to 8.00"),
    ("C=CC(=O)N1CC[C@@H](n2nc(-c3ccc(OCc4ccccc4F)cc3)c3cnccc32)C1", "7.00 to 8.00"),
    ("C=CC(=O)N1CC[C@@H](n2nc(-c3ccc(Oc4cccc(OC)c4C)cc3)c3cnccc32)C1", "7.00 to 8.00"),
    ("C=CC(=O)N1CCC[C@H](n2nc(-c3ccc(Oc4cccc(C)c4)cc3)c3cnccc32)C1", "7.00 to 8.00"),
    ("C=CC(=O)N1CCC[C@@H](n2nc(-c3ccc(Oc4cccc(OC)c4F)cc3)c3cncc(OC)c32)C1", "> 8.00"),
    ("COc1cccc(Oc2ccc(-c3nn([C@@H]4CCCN(C(=O)C(=O)O)C4)c4c(OC)cncc34)cc2)c1F", "7.00 to 8.00"),
    ("C=CC(=O)N1CCC[C@@H](n2nc(-c3ccc(Oc4ccccc4)c(F)c3)c3cnccc32)C1", "7.00 to 8.00"),
    ("O=C(Nc1ccc(-c2nn(C3CCC(C(=O)O)CC3)c3ccncc23)cc1)c1ccccc1 (stereo not drawn)", "< 5.00"),
    ("C=CC(=O)N1CC[C@H](n2nc(-c3ccc(Oc4cccc(Cl)c4)cc3)c3cnccc32)C1", "7.00 to 8.00"),
    ("C=CC(=O)N1CC[C@@H](n2nc(-c3ccc(Oc4cccc(C)c4)cc3)c3cnccc32)C1", "7.00 to 8.00"),
    ("C=CC(=O)N1CC[C@@H](n2nc(-c3ccc(Oc4ccccc4)cc3)c3cncc(F)c32)C1", "> 8.00"),
]
